System: HIV-1 (JRCSF)
Assay: Anti-HIV activity in MaRBLE cells infected with HIV-1 (JRCSF), luciferase readout
Type: cell-based
Conditions: Human immunodeficiency virus 1, 168 h; MaRBLE cells (human T lymphocyte-derived HPB-M(a)) infected with HIV-1 (JRCSF); 7 days culture; rate of viral proliferation by luciferase activity; read-out: Anti-HIV activity IC50
pIC50: −log10 of the molar value.
observable: pIC50

Here's what some known entries look like.
Cc1ncnc2c1c(NCc1ccc3c(c1)OCO3)cc(=O)n2O | 7.21
Cc1ncnc2c1c(NC1CCN(C)CC1)cc(=O)n2O | 6.24
Cc1ncnc2c1c(NCc1ccc(NS(=O)(=O)c3ccccc3)cc1)cc(=O)n2O | 6.31
Cc1ncnc2c1c(NCc1ccc3cc[nH]c3c1)cc(=O)n2O | 7.20

A. CN(C)c1ccc(CNc2cc(=O)n(O)c3ncncc23)cc1
B. O=c1cc(NCCc2ccccc2)c2cncnc2n1O
Smaller pIC50 value? Options are A and B Mark your answer with the label of the selected entry.
B
(B: 6.16, A: 6.68)
